# Experimental Details: Probe fluorescence ratio response to stearic acid relative to ADIFAB2
# Format: binding
# Recorded Conditions: Table 5

Molecule | ΔR/DRAΔ2 SA
L2P23G7: FABP probe, substitutions M18V G31F F55L vs SEQ ID NO: 2 (protein, listed as Rattus norvegicus, PEPTIDE (1)...(131) wild-type rat intestinal fatty acid binding protein) AFDGTWKVDRNENYEKFVEKMGINVVKRKLFAHDNLKLTITQEGNKFTVKESSNLRNIDVVFELGVDFAYSLADGTELTGTWTMEGNKLVGKFKRVDNGKELIAVREISGNELIQTYTYEGVEAKRIFKKE | 0.4
L2P8A5: FABP probe, substitutions M18V G31A F55W A73W vs SEQ ID NO: 2 (protein, listed as Rattus norvegicus, PEPTIDE (1)...(131) wild-type rat intestinal fatty acid binding protein) AFDGTWKVDRNENYEKFVEKMGINVVKRKLAAHDNLKLTITQEGNKFTVKESSNWRNIDVVFELGVDFAYSLWDGTELTGTWTMEGNKLVGKFKRVDNGKELIAVREISGNELIQTYTYEGVEAKRIFKKE | 0.4
